run.description: Inhibition of Escherichia coli recombinant his-tagged DHDPS using (S)-aspartate-semialdehyde as a substrate preincubated for 12 mins followed by substrate addition by UV-Vis spectrophotometer based coupled DHDPS-DHDPR assay
For each record, write down the corresponding log10(IC50).
log10 IC50, µM

**Query** Entry under review: O=C(O)CN1C(=O)S/C(=C\c2ccsc2)C1=O . Reported log10(IC50)?
**Result** 1.94

**Query** Entry under review: Nc1ccc(/C=C2\SC(=O)N(CC(=O)O)C2=O)cc1 . Reported log10(IC50)?
**Result** 2.18

**Query** Entry under review: O=C(O)CN1C(=O)S/C(=C\c2ccc(Cl)cc2)C1=O . Reported log10(IC50)?
**Result** 1.92

**Query** Entry under review: COc1ccc(/C=C2\NC(=O)N(CC(=O)O)C2=O)cc1 . Reported log10(IC50)?
**Result** 1.82

**Query** Entry under review: CSc1ccc(/C=C2\SC(=O)N(CC(=O)O)C2=O)cc1 . Reported log10(IC50)?
**Result** 2.10

**Query** Entry under review: CCOc1ccc(/C=C2\SC(=O)N(CC(=O)O)C2=O)cc1 . Reported log10(IC50)?
**Result** 1.86

**Query** Entry under review: COc1ccc(/C=C2\NC(=S)NC2=O)cc1 . Reported log10(IC50)?
**Result** 2.51

**Query** Entry under review: COc1ccc(/C=C2\SC(=O)N(CCCC(=O)O)C2=O)cc1 . Reported log10(IC50)?
**Result** 1.83

**Query** Entry under review: O=C(O)CN1C(=O)S/C(=C\c2ccc(F)cc2)C1=O . Reported log10(IC50)?
**Result** 1.96

**Query** Entry under review: N#Cc1ccc(/C=C2\SC(=O)N(CC(=O)O)C2=O)cc1 . Reported log10(IC50)?
**Result** 1.90

**Query** Entry under review: O=C(O)CN1C(=O)S/C(=C\c2ccc3ccccc3c2)C1=O . Reported log10(IC50)?
**Result** 1.88

**Query** Entry under review: O=C(O)CN1C(=O)S/C(=C\c2ccc(O)cc2O)C1=O . Reported log10(IC50)?
**Result** 2.21

**Query** Entry under review: O=C(O)CN1C(=O)S/C(=C\c2ccccc2)C1=O . Reported log10(IC50)?
**Result** 1.90

**Query** Entry under review: Cc1ccc(/C=C2\SC(=O)N(CC(=O)O)C2=O)cc1 . Reported log10(IC50)?
**Result** 1.90

**Query** Entry under review: O=C(O)CN1C(=O)S/C(=C\c2c[nH]cn2)C1=O . Reported log10(IC50)?
**Result** 1.97

**Query** Entry under review: O=C(O)CN1C(=O)S/C(=C\c2ccc(C(F)(F)F)cc2)C1=O . Reported log10(IC50)?
**Result** 2.09

**Query** Entry under review: COc1ccc(/C=C2\NC(=S)N(CC(=O)O)C2=O)cc1 . Reported log10(IC50)?
**Result** 2.35

**Query** Entry under review: O=C(O)CN1C(=O)S/C(=C\c2ccc(C(=O)O)cc2)C1=O . Reported log10(IC50)?
**Result** 1.85

**Query** Entry under review: COc1ccc(C=C2SC(=O)N(CC(=O)O)C2=O)cc1 (mixture of isomers) . Reported log10(IC50)?
**Result** 1.59

**Query** Entry under review: COc1cccc(/C=C2\SC(=O)N(CC(=O)O)C2=O)c1OC . Reported log10(IC50)?
**Result** 2.03

**Query** Entry under review: O=C(O)CN1C(=O)S/C(=C\c2cccc3ccccc23)C1=O . Reported log10(IC50)?
**Result** 1.99

**Query** Entry under review: COc1ccccc1/C=C1\SC(=O)N(CC(=O)O)C1=O . Reported log10(IC50)?
**Result** 1.85

**Query** Entry under review: COc1ccc(/C=C2\SC(=O)N(CC(=O)O)C2=O)cc1 . Reported log10(IC50)?
**Result** 1.67

**Query** Entry under review: COc1ccc(/C=C2\SC(=O)NC2=O)cc1 . Reported log10(IC50)?
**Result** 1.85

**Query** Entry under review: O=C(O)CN1C(=O)S/C(=C\c2ccncc2)C1=O . Reported log10(IC50)?
**Result** 1.95

**Query** Entry under review: O=C(O)CN1C(=O)S/C(=C\c2ccc(Br)cc2)C1=O . Reported log10(IC50)?
**Result** 1.87

**Query** Entry under review: COc1ccc(/C=C2\NC(=O)NC2=O)cc1 . Reported log10(IC50)?
**Result** 2.09

**Query** Entry under review: O=C(O)CN1C(=O)S/C(=C\c2ccc(O)cc2)C1=O . Reported log10(IC50)?
**Result** 2.01

**Query** Entry under review: O=C(O)CN1C(=O)S/C(=C\c2ccc3ccccc3n2)C1=O . Reported log10(IC50)?
**Result** 2.04

**Query** Entry under review: O=C(O)CN1C(=O)S/C(=C\c2ccc(=O)[nH]c2)C1=O . Reported log10(IC50)?
**Result** 1.77

**Query** Entry under review: O=C(O)CN1C(=O)S/C(=C\c2ccc(OC(F)(F)F)cc2)C1=O . Reported log10(IC50)?
**Result** 1.99

**Query** Entry under review: O=C(O)CN1C(=O)S/C(=C\c2cccnc2)C1=O . Reported log10(IC50)?
**Result** 2.14

**Query** Entry under review: COc1ccc(/C=C2\SC(=O)N(CC(=O)O)C2=O)cn1 . Reported log10(IC50)?
**Result** 1.66

**Query** Entry under review: COc1ccc(/C=C2\SC(=S)N(CC(=O)O)C2=O)cc1 . Reported log10(IC50)?
**Result** 2.73

**Query** Entry under review: O=C(O)CN1C(=O)S/C(=C\c2ccccn2)C1=O . Reported log10(IC50)?
**Result** 1.90

**Query** Entry under review: COc1ccc(/C=C2\SC(=N)NC2=O)cc1 . Reported log10(IC50)?
**Result** 2.19

**Query** Entry under review: O=C(O)CN1C(=O)S/C(=C\c2ccccc2Cl)C1=O . Reported log10(IC50)?
**Result** 2.14

**Query** Entry under review: O=C(O)CN1C(=O)S/C(=C\c2ccc(OCc3ccccc3)cc2)C1=O . Reported log10(IC50)?
**Result** 1.85

**Query** Entry under review: COc1ccc(/C=C2\SC(=O)N(Cc3nnn[nH]3)C2=O)cc1 . Reported log10(IC50)?
**Result** 1.95

**Query** Entry under review: O=C(O)CN1C(=O)S/C(=C\c2ccc(O)c(Cl)c2)C1=O . Reported log10(IC50)?
**Result** 2.50

**Query** Entry under review: CC(=O)Nc1ccc(/C=C2\SC(=O)N(CC(=O)O)C2=O)cc1 . Reported log10(IC50)?
**Result** 1.83

**Query** Entry under review: COc1ccc(/C=C2\SC(=O)N(CC(=O)O)C2=O)cc1OC . Reported log10(IC50)?
**Result** 2.06

**Query** Entry under review: COc1cccc(/C=C2\SC(=O)N(CC(=O)O)C2=O)c1 . Reported log10(IC50)?
**Result** 2.04

**Query** Entry under review: O=C(O)CN1C(=O)S/C(=C\c2cccc(Cl)c2)C1=O . Reported log10(IC50)?
**Result** 2.08

**Query** Entry under review: O=C(O)CN1C(=O)S/C(=C\c2cccs2)C1=O . Reported log10(IC50)?
**Result** 1.86

Just for reference, ChEMBL document CHEMBL4840371 is where these values come from.
